Consider the following molecules; for each one, report its pIC50.
- Tested on: RAW264.7
- Test: Antiinflammatory activity in mouse RAW264.7 cells assessed as inhibition of LPS-induced nitric oxide generation incubated for 24 hrs
- Format: functional, cell-based
- Details: RAW264.7, 24 h
pIC50 here is simply -log10 of the concentration when that concentration is written in mol/L.

Would you kindly share the measured pIC50 for O=C1c2ccc(O)cc2OC[C@@H]1Cc1ccc(O)c(O)c1 ?
4.37

Would you kindly share the measured pIC50 for O=Cc1ccc(O)cc1O[C@H](O)c1ccc(O)c(O)c1 ?
4.91

Would you kindly share the measured pIC50 for COc1ccc(-c2oc3cc(O)cc(O)c3c(=O)c2O)cc1OC ?
4.46

Would you kindly share the measured pIC50 for COc1cc(O)c2c(=O)c(OC)c(-c3ccc(O)c(O)c3)oc2c1 ?
5.46

Would you kindly share the measured pIC50 for O=C1/C(=C/c2ccc(O)c(O)c2)COc2cc(O)ccc21 ?
5.24

---

- System: RAW264.7
- Test: Cytotoxicity against mouse RAW264.7 cells at 50 uM incubated for 24 hrs in presence of LPS by MTT assay
- Type: cell-based
- Details: raw264.7, 24 h
Observed Property: Activity

Below, each entry is followed by its recorded Activity result.
| Item Smiles | Value Measured |
| --- | --- |
| COc1cc(C[C@@]2(O)COc3cc(O)ccc3C2=O)ccc1O | Non-toxic |
| COc1cc(O)c2c(=O)c(OC)c(-c3ccc(O)c(O)c3)oc2c1 | Non-toxic |
| COc1ccc(-c2oc3cc(O)cc(O)c3c(=O)c2O)cc1OC | Non-toxic |
| O=Cc1ccc(O)cc1O[C@H](O)c1ccc(O)c(O)c1 | Non-toxic |
| O=C1COc2cc(O)ccc2-c2cc(O)c(O)cc21 | Non-toxic |

Would you kindly share the measured Activity for O=C1c2ccc(O)cc2OC[C@]1(O)Cc1ccc(O)cc1 ?
Non-toxic

Would you kindly share the measured Activity for O=C1C=C[C@]23CC(COC2=C1)Cc1cc(O)c(O)cc13 ?
Non-toxic

Would you kindly share the measured Activity for O=C1/C(=C/c2ccc(O)c(O)c2)COc2cc(O)ccc21 ?
Non-toxic

Would you kindly share the measured Activity for O=C1OCC=C1C[C@@]1(O)COc2cc(O)ccc2C1=O ?
Non-toxic

Would you kindly share the measured Activity for O=C1c2ccc(O)cc2OC[C@@H]1Cc1ccc(O)c(O)c1 ?
Non-toxic

Would you kindly share the measured Activity for O=C1/C(=C/c2ccc(O)cc2)COc2cc(O)ccc21 ?
Non-toxic

---

- System: RAW264.7
- Test: Cytotoxicity against mouse RAW264.7 cells at 50 uM incubated for 24 hrs in absence of LPS by MTT assay
- Type: cell-based
- Details: raw264.7, 24 h
Observed Property: Activity

| Compound | Observed Property | Value Measured |
| --- | --- | --- |
| O=C1c2ccc(O)cc2OC[C@]1(O)Cc1ccc(O)cc1 | Activity | Non-toxic |
| O=C1COc2cc(O)ccc2-c2cc(O)c(O)cc21 [CAESALPINIAPHENOL C] | Activity | Non-toxic |
| COc1cc(O)c2c(=O)c(OC)c(-c3ccc(O)c(O)c3)oc2c1 | Activity | Non-toxic |
| COc1ccc(-c2oc3cc(O)cc(O)c3c(=O)c2O)cc1OC | Activity | Non-toxic |
| O=C1OCC=C1C[C@@]1(O)COc2cc(O)ccc2C1=O [CAESALPINIAPHENOL B] | Activity | Non-toxic |

Would you kindly share the measured Activity for O=Cc1ccc(O)cc1O[C@H](O)c1ccc(O)c(O)c1 [CAESALPINIAPHENOL D] ?
Non-toxic

Would you kindly share the measured Activity for O=C1C=C[C@]23CC(COC2=C1)Cc1cc(O)c(O)cc13 ?
Non-toxic

Would you kindly share the measured Activity for O=C1/C(=C/c2ccc(O)c(O)c2)COc2cc(O)ccc21 [SAPPANONE A] ?
Non-toxic

Would you kindly share the measured Activity for O=C1c2ccc(O)cc2OC[C@@H]1Cc1ccc(O)c(O)c1 ?
Non-toxic

Would you kindly share the measured Activity for O=C1/C(=C/c2ccc(O)cc2)COc2cc(O)ccc21 ?
Non-toxic

Would you kindly share the measured Activity for COc1cc(C[C@@]2(O)COc3cc(O)ccc3C2=O)ccc1O [CAESALPINIAPHENOL A] ?
Non-toxic
